target: Focal adhesion kinase 1 (Homo sapiens, UniProt Q05397); also: in the data inactive means no Kd found up to 30 µM
Sequence (Q05397 whole entry): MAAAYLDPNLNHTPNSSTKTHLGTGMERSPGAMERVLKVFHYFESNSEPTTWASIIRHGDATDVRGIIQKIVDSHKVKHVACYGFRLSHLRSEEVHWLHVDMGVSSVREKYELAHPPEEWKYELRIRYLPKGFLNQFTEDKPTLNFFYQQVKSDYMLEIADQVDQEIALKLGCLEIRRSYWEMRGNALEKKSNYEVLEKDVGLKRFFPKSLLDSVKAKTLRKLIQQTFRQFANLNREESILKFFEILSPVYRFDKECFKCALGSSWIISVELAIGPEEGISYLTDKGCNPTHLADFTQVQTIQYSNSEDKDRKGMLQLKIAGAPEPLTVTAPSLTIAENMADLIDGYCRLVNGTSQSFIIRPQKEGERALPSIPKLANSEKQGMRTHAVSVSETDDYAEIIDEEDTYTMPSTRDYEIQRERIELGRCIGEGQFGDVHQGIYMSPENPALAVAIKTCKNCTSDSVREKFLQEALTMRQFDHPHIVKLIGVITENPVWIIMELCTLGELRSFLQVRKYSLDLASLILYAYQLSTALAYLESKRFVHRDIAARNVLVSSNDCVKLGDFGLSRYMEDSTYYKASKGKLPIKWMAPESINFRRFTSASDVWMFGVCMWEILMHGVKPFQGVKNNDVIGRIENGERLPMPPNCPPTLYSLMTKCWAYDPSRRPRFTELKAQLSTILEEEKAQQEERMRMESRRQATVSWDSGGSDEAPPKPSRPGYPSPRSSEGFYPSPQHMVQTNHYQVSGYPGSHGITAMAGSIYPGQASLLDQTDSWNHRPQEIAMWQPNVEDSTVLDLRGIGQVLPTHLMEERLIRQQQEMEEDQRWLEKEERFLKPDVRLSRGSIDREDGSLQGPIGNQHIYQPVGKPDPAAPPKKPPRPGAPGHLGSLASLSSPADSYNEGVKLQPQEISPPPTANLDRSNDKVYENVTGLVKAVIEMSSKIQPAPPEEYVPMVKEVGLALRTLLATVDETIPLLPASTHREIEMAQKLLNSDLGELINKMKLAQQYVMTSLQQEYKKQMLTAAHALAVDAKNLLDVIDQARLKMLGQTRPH
Active and inactive are the calls of the source.
One label from this list, please: active, inactive

CC(=O)c1cnc2ccc(-c3cc(Cl)c(O)c(Cl)c3)nc2c1N[C@H]1CC[C@H](CN(C)C)CC1    active
O=C(Cc1ccc(-c2ccc(OCCN3CCOCC3)cc2)cn1)NCc1ccccc1    inactive
COc1cc2ncnc(Oc3cccc(NC(=O)Nc4cc(C(C)(C)C(F)(F)F)on4)c3)c2cc1OC    inactive
CCNC(=O)C#Cc1ccc2c(c1)NC(=O)/C2=C(\Nc1ccc(CN(C)C)cc1)c1ccccc1    inactive
CO[C@H]1C[C@@H]2CC[C@@H](C)[C@@](O)(O2)C(=O)C(=O)N2CCCC[C@H]2C(=O)O[C@H]([C@H](C)C[C@@H]2CC[C@@H](OP(C)(C)=O)[C@H](OC)C2)CC(=O)[C@H](C)/C=C(\C)[C@@H](O)[C@@H](OC)C(=O)[C@H](C)C[C@H](C)/C=C/C=C/C=C/1C    inactive
Cc1cnc(NC(=O)Nc2cc(Br)c(C)cc2OC[C@@H]2CNCCO2)cn1    inactive

Q: Could you check what this test reported for "O=C(Nc1nc2cccc(-c3ccc(CN4CCS(=O)(=O)CC4)cc3)n2n1)C1CC1" ?
A: inactive
